Data origin, for the record: paper PMC10671052

Assay: Metabolic stability in rat liver microsomes
Conditions: rat, microsomes, pH 7.4, t1/2, rat liver microsomes, cofactor NADPH
Method: The metabolic stability of a test compound was evaluated based on the rate of disappearance during incubation with rat liver microsomes. […] The natural logarithm of a peak area ratio (compound peak area/internal standard peak area) was plotted against incubation time, and the slope of the line was determined.
metric: half-life at 1 µM (h)
Numbers only, in h.

What value of measured half-life at 1 µM is listed for "O=c1ccc2ccc(O)cc2o1" ?
2.64

----------
Field: IC50. Provide a value for each of the compounds that follow.
Target: human cystathionine-γ-lyase (hCSE) (Homo sapiens)
Construct: His6-TEV (N, cleaved yes); host or cells: E. coli
Sequence (P32929 whole entry): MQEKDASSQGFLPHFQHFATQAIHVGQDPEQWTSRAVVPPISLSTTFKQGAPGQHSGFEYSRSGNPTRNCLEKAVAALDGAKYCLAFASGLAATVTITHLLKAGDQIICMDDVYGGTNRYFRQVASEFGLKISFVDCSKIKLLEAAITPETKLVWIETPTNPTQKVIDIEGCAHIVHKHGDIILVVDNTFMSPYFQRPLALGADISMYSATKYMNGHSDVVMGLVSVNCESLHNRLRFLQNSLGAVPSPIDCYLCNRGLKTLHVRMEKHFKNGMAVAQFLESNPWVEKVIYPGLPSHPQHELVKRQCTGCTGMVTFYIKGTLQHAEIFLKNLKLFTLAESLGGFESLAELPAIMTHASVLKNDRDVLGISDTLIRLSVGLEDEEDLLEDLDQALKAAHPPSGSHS
Assay: IC50 assay: inhibition of H2S production by purified hCSE, WSP5 fluorescent probe
Format: biochemical
Settings: IC50 biochemical assay hCSE, purified hCSE 0.02 μM, 100 μM L-cysteine, WSP5 probe, mean ± SD

# chem_smiles, recorded_measurement
measured = [
    ("O=C(O)c1cn(Cc2ccc3ccccc3c2)c2ccccc12", "> 500 µM"),
]

# input for lookup
What value of measured IC50 is listed for "O=C(O)c1cn(Cc2cccc3ccccc23)c2ccccc12" ?
> 500 µM

----------
Target: S. aureus cystathionine-γ-lyase (bCSE) (Staphylococcus aureus, UniProt A0A0H3K724)
Sequence (A0A0H3K724 entry or part of it): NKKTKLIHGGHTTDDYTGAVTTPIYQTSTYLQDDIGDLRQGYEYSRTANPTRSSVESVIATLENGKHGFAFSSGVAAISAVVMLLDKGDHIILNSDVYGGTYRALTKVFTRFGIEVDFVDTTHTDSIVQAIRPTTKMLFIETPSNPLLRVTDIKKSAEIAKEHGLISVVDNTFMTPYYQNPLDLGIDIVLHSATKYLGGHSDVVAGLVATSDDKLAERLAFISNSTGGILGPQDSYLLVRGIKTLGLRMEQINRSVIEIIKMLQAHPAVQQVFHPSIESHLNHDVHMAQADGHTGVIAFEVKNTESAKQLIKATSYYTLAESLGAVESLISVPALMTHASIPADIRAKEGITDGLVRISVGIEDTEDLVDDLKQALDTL
Assay: IC50 assay: inhibition of H2S production by purified bCSE, WSP5 fluorescent probe
Type: biochemical
Details: IC50 (uM), bCSE enzymatic IC50, rounded, repeated in Table S15
Text: […]
Kindly apply the following: Met if IC50 is less than 100 µM, Not met in every other case.

Is the reported IC50 for "O=C(O)c1ccc2c(ccn2Cc2ccc3ccccc3c2)c1" strictly below 100 µM?
Not met

Is the reported IC50 for O=C(O)c1ccc2ccn(Cc3cccc4ccccc34)c2c1 [Compound 4a] strictly below 100 µM?
Not met

Is the reported IC50 for "O=C(O)c1cc2ccccc2n1Cc1cccc2ccccc12" strictly below 100 µM?
Met

Is the reported IC50 for O=C(O)c1ccc2ccn(Cc3cccc4ccccc34)c2c1 [Compound 3a] strictly below 100 µM?
Met

Is the reported IC50 for "O=C(O)c1cccn1Cc1cccc2ccccc12" strictly below 100 µM?
Not met

Is the reported IC50 for "O=C(O)c1ccc2ccn(Cc3ccc4ccccc4c3)c2c1" strictly below 100 µM?
Not met

Is the reported IC50 for "O=C(O)c1cccn1Cc1ccc2ccccc2c1" strictly below 100 µM?
Not met

Is the reported IC50 for "O=C(O)c1cc2ccccc2n1Cc1ccc2ccccc2c1" strictly below 100 µM?
Met

----------
Biological target: S. aureus cystathionine-γ-lyase (bCSE) (Staphylococcus aureus)
Test: IC50 assay: inhibition of H2S production by purified bCSE, WSP5 fluorescent probe
Type: biochemical
Details: IC50 (uM), bCSE enzymatic IC50, rounded, repeated in Table S14
Kindly apply the following: t if IC50 is less than 100 µM, f in every other case.

Examples with answers:
# molecule, group
data = [
    ("O=C(O)c1cn(Cc2ccc3ccccc3c2)c2ccccc12 [Compound 1b]", "f"),
    ("Cc1oc(Cn2ccc3ccc(Br)cc32)cc1C(=O)O [NL2]", "f"),
    ("O=C(O)c1ccc2ccn(Cc3ccc4ccccc4c3)c2c1 [Compound 3b]", "f"),
    ("O=C(O)c1cc2ccccc2n1Cc1cccc2ccccc12 [Compound 2a]", "t"),
    ("O=C(O)c1cccn1Cc1ccc2ccccc2c1 [Compound 5b]", "f"),
]

Is the reported IC50 for O=C(O)c1ccc2ccn(Cc3cccc4ccccc34)c2c1 [Compound 4a] strictly below 100 µM?
f

Is the reported IC50 for O=C(O)c1cccn1Cc1cccc2ccccc12 [Compound 5a] strictly below 100 µM?
f

Is the reported IC50 for O=C(O)c1ccc2ccn(Cc3cccc4ccccc34)c2c1 [Compound 3a] strictly below 100 µM?
t

Is the reported IC50 for O=C(O)c1ccc2c(ccn2Cc2ccc3ccccc3c2)c1 [Compound 4b] strictly below 100 µM?
f

Is the reported IC50 for O=C(O)c1cc2ccccc2n1Cc1ccc2ccccc2c1 [Compound 2b] strictly below 100 µM?
t

----------
Assay: Caco-2 cell permeability
Assay type: in vitro ADME
Settings: human; Caco-2, 10 μM, 2 h, pH 7.4
metric: Papp A→B at 2 h, 10 μM
# include the unit after the value

# molecule, Papp A→B at 2 h, 10 μM
rows = [
    ("O=C(O)c1cc2ccccc2n1Cc1cccc2ccccc12 [Compound 2a]", "43.3 ×10⁻⁶ cm/s"),
]

# input for lookup
What value of measured Papp A→B at 2 h, 10 μM is listed for CC(C)NCC(O)COc1cccc2ccccc12 (centres unmarked) [Propranolol, reference compound] ?
30.2 ×10⁻⁶ cm/s

----------
Molecular target: UniProt:A0A0H3K724
Test: IC50 assay: inhibition of H2S production by purified bCSE, WSP5 fluorescent probe
Assay type: biochemical
Settings: IC50 (uM), bCSE enzymatic IC50, rounded, repeated in Table S13
Kindly apply the following: yes if IC50 is less than 100 µM, no in every other case.

# compound, group
data = [
    ("O=C(O)c1cccn1Cc1ccc2ccccc2c1", "no"),
    ("Cc1oc(Cn2ccc3ccc(Br)cc32)cc1C(=O)O", "no"),
    ("O=C(O)c1cn(Cc2ccc3ccccc3c2)c2ccccc12", "no"),
    ("O=C(O)c1cccn1Cc1cccc2ccccc12", "no"),
    ("O=C(O)c1ccc2ccn(Cc3cccc4ccccc34)c2c1 [Compound 3a]", "yes"),
    ("O=C(O)c1cc2ccccc2n1Cc1cccc2ccccc12", "yes"),
    ("O=C(O)c1ccc2ccn(Cc3cccc4ccccc34)c2c1 [Compound 4a]", "no"),
    ("O=C(O)c1ccc2c(ccn2Cc2ccc3ccccc3c2)c1", "no"),
]

Next item in the queue.
Is the reported IC50 for "O=C(O)c1cc2ccccc2n1Cc1ccc2ccccc2c1" strictly below 100 µM?
yes

----------
Experiment: Metabolic stability in rat liver microsomes
Details: rat, microsomes, pH 7.4, t1/2, rat liver microsomes, cofactor UDPGA
metric: half-life at 1 µM (min)
One number for each entry, in min.

What value of measured half-life at 1 µM is listed for O=c1ccc2ccc(O)cc2o1 [Umbelliferone] ?
7.7

----------
Field: IC50. Provide a value for each of the compounds that follow.
Target: human cystathionine-γ-lyase (hCSE) (Homo sapiens)
Construct: His6-TEV (N, cleaved yes); host or cells: E. coli
Assay: IC50 assay: inhibition of H2S production by purified hCSE, WSP5 fluorescent probe
Assay type: biochemical
Details: purified hCSE 0.02 μM, 100 μM L-cysteine, WSP5 probe, mean ± SD; read-out: IC50 biochemical assay hCSE
Numbers only, in µM.

# compound, assayed_target, metric, recorded_measurement
records = [
    ("C#CC[C@H](N)C(=O)O (racemic) [PAG, DL-propargylglycine, reference compound]", "human cystathionine-γ-lyase (hCSE) (Homo sapiens)", "IC50", 0.17),
]

# input for lookup
human cystathionine-γ-lyase (hCSE) (Homo sapiens) / IC50 / "O=C(O)c1cc2ccccc2n1Cc1cccc2ccccc12" : value?
251

----------
Target: human cystathionine-γ-lyase (hCSE) (Homo sapiens)
Construct: His6-TEV (N, cleaved yes); host or cells: E. coli
Test: IC50 assay: inhibition of H2S production by purified hCSE, WSP5 fluorescent probe
Assay type: biochemical
Details: read-out: IC50 biochemical assay hCSE; purified hCSE 0.02 μM, 100 μM L-cysteine, WSP5 probe, mean ± SD
Source text: […]
pIC50: −log10 of the molar value.
metric: pIC50

What value of measured pIC50 is listed for O=C([O-])c1cn(Cc2cccc3ccccc23)c2ccccc12.[Na+] [Compound 1c] ?
< 3.30

----------
Test: HEK293 cytotoxicity assay (Alamar Blue)
Assay type: cell-based
Settings: human, HEK293, 72 h
metric: CC50 at 72 h (µM)
Give bare numbers, in µM.

# chem_smiles, CC50 at 72 h, µM
data = [
    ("O=C(O)c1cn(Cc2ccc3ccccc3c2)c2ccccc12", 423),
]

What value of measured CC50 at 72 h is listed for "O=C(O)c1cn(Cc2cccc3ccccc23)c2ccccc12" ?
432

----------
Field: Papp B→A at 2 h, 10 μM. Provide a value for each of the molecules that follow.
Assay: Caco-2 cell permeability
Type: in vitro ADME
Details: human; Caco-2, 10 μM, 2 h, pH 7.4
Answers are plain numbers, in ×10⁻⁶ cm/s.

# molecule, metric, recorded_measurement
data = [
    ("CC(C)NCC(O)COc1cccc2ccccc12 (centres unmarked) [Propranolol, reference compound]", "Papp B→A at 2 h, 10 μM", 31.6),
]

What value of measured Papp B→A at 2 h, 10 μM is listed for "O=C(O)c1cc2ccccc2n1Cc1cccc2ccccc12" ?
49.1

----------
Target: S. aureus cystathionine-γ-lyase (bCSE) (Staphylococcus aureus)
Assay: IC50 assay: inhibition of H2S production by purified bCSE, WSP5 fluorescent probe
Assay type: biochemical
Conditions: IC50 biochemical assay bCSE, purified bCSE 0.02 μM, 100 μM L-cysteine, WSP5 probe, mean ± SD
pIC50: −log10 of the molar value.
Field: pIC50. Provide a value for each of the compounds that follow.

List pIC50 for every entry below, keeping the order given.
1. O=C(O)c1cn(Cc2cccc3ccccc23)c2ccccc12
2. O=C(O)c1cn(Cc2ccc3ccccc3c2)c2ccccc12
3. O=C(O)c1cccn1Cc1ccc2ccccc2c1

["< 3.30", "< 3.30", "< 3.30"]
